target: Human GPR120 short form (Homo sapiens, UniProt Q5NUL3); construct: expressed in transfected cells; assay: Human GPR120 calcium flux assay, Procedure Calcium A (2500 cells/well); type: cell-based
Sequence (Q5NUL3 whole entry): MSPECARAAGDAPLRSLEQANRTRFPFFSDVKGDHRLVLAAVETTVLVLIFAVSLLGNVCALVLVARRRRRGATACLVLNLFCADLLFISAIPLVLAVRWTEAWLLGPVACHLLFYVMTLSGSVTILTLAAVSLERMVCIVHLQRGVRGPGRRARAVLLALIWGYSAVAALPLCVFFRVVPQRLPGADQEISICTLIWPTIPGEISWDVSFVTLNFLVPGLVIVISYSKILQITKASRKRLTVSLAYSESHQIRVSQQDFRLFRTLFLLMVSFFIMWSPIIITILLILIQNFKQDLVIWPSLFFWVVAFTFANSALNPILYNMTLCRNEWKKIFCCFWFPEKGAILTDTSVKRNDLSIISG
Assign a class from recorded EC50; defined classes: class A (below 0.3 µM), class B (0.3 µM to below 0.6 µM), class C (0.6 µM or more)

Incoming: Kindly state the category for this compound: CSc1ccc(C2=C(COc3ccc(CCC(=O)O)c(C)c3C)CCCC2)cc1
Outgoing: class B

Incoming: Kindly state the category for this compound: Cc1c(CCC(=O)O)ccc(OCC2=C(c3ccncc3)CCC2)c1C
Outgoing: class C

Incoming: Kindly state the category for this compound: Cc1c(CCC(=O)O)ccc(OCC2=C(c3ccc(I)cc3)CCCC2)c1C
Outgoing: class C

Incoming: Kindly state the category for this compound: Cc1c(CCC(=O)O)ccc(OCC2=C(c3ccc(I)cc3)CCC2)c1C
Outgoing: class B

Incoming: Kindly state the category for this compound: Cc1ccc(C2=C(COc3ccc(CCC(=O)O)c(C)c3C)CCC2)cc1F
Outgoing: class A

Incoming: Kindly state the category for this compound: Cc1c(CCC(=O)O)ccc(OCC2=C(c3cccs3)CCC2)c1C
Outgoing: class B

Incoming: Kindly state the category for this compound: Cc1cc(CCC(=O)O)ccc1OCC1=C(c2ccc(Cl)cc2)CCC(F)(F)C1
Outgoing: class A

Incoming: Kindly state the category for this compound: Cc1c(CCC(=O)O)ccc(OCC2=C(c3ccc(Cl)cc3)CCCC2)c1C
Outgoing: class B
